Every entry's value here was drawn from patent US20120207763A1.

Kindly supply the reported IC50 values for the records listed here.
Target: JAK-3 (Homo sapiens, UniProt P52333)
Construct: GST fusion constructs of the kinase domains of both enzymes are used; GST
Sequence (P52333 822-1111 limits assumed): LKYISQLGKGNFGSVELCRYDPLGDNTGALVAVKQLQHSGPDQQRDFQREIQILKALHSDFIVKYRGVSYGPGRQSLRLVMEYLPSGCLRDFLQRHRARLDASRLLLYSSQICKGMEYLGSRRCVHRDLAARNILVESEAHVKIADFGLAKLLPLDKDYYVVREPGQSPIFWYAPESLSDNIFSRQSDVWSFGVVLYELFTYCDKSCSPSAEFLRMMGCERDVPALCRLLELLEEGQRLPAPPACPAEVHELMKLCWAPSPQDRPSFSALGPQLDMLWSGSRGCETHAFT
Assay: JAK LANCE enzymatic assay (JAK-3)
Format: biochemical
Settings: Table A; read-out: Jak-3/ IC50

# map each molecule to its IC50
1. CCC(CC)n1ccc2cnc(Nc3ccc(N4CCN(C)CC4)cc3)nc21
2. CCC(CC)N1C(=O)Cc2cnc(Nc3ccc(N4CCN(C)CC4)cn3)nc21
3. COc1ccc(C(=O)N2CCOCC2)cc1Nc1ncc2c(n1)NC(=O)C2 [drawing 17]
4. CCC(CC)n1ccc2cnc(Nc3ccc(N4CCN(C(C)=O)CC4)cn3)nc21 [drawing 81]
5. CCC(CC)n1c(=O)n(C)c2cnc(Nc3ccc(N4CCN(C)CC4)cc3)nc21

["≤ 100 nM", "≥ 100 nM", "≥ 100 nM", "≥ 100 nM", "≤ 100 nM"]

Go through the list and state IC50 for each entry.
1. CCC(CC)n1ccc2cnc(Nc3ccc(N4CCN(C)CC4)c(F)c3)nc21 [drawing 83]
2. CCC(CC)N1C(=O)Cc2cnc(Nc3cccc(OCCN4CCCC4)c3)nc21

≤ 100 nM
≤ 100 nM

# batch size: 4; output IC50 per entry
1. CCC(CC)N1C(=O)Cc2cnc(Nc3ccc(N4CCN(C)CC4)nc3)nc21
2. CCC(CC)N1C(=O)Cc2cnc(Nc3ccc(NC(=O)c4ccncc4)cc3)nc21
3. CCC(CC)N1C(=O)Cc2cnc(Nc3ccc(N4CCC(OC(=O)c5ccccc5)CC4)cc3)nc21
4. O=C(c1ccc(Nc2ncc3c(n2)N(C2CC2)C(=O)C3)cc1)N1CCOCC1

1: ≥ 100 nM; 2: ≥ 100 nM; 3: ≥ 100 nM; 4: ≥ 100 nM

###

Target: CDK2/Cyclin-A kinase complex (Homo sapiens)
Assay: CDK2 IMAP fluorescence polarization assay
Format: biochemical
Conditions: Table E; read-out: CDK2cyA IMAP/IC50 [umol l − 1]
Answer each item with its documented IC50.

| compound | IC50 |
| --- | --- |
| CCC(CC)n1c(C=O)cc2cnc(Nc3ccc(N4CCN(C(C)=O)CC4)cc3)nc21 [Example 361] | < 1 µM |
| CCC(CC)n1c(C(=O)Nc2cc[nH]n2)cc2cnc(Nc3ccc(N4CCNCC4)cc3)nc21 [Example 356] | < 10 µM |
| Cc1ccc(Nc2ncc3ccn(C4CCCC4)c3n2)cc1 [Example 435] | < 10 µM |
| c1cc(Nc2ncc3ccn(C4CCCC4)c3n2)ncc1N1CCNCC1 [Example 424] | > 10 µM |
| NC1CCC(n2ccc3cnc(Nc4ccc(N5CCNCC5)cc4)nc32)CC1 (centres unmarked) [Example 243] | < 1 µM |
| OC[C@@H]1CCC(n2ccc3cnc(Nc4ccc(N5CCNCC5)cc4)nc32)C1 (some centres unmarked) [Example 250] | < 1 µM |
| CCC(CC)n1c(CNc2cc(C)[nH]n2)cc2cnc(Nc3ccc(N4CCN(C(C)=O)CC4)cc3)nc21 [Example 372] | < 1 µM |

Let's switch to this compound now.
Lab request: please report IC50 under test system CDK2/Cyclin-A kinase complex (Homo sapiens) for CCC(CC)n1c(CNc2ccon2)cc2cnc(Nc3ccc(N4CCN(C(C)=O)CC4)cc3)nc21 [Example 371]
< 10 µM

###

Please provide measured IC50 for the entries that follow.
Target: CDK4 (Homo sapiens)
Assay: CDK4 HTRF assay
Type: biochemical
Details: Table E; read-out: CDK4 HTRF/IC50 [umol l − 1]

Sample answers from the record:
| compound | reported-value |
| --- | --- |
| Cc1cn(C2CCCC2)c2nc(Nc3ccc(N4CCCCC4)nc3)ncc12 | > 10000 nM |
| Cc1n[nH]c(-c2c(C)c3cnc(Nc4ccc(N5CCNCC5)cn4)nc3n2C2CCCC2)n1 | < 1000 nM |
| c1cc(N2CCNCC2)ccc1Nc1ncc2ccn(C34CC5CC(CC(C5)C3)C4)c2n1 | < 1000 nM |
| O=C(O)[C@@H]1CCC(n2ccc3cnc(Nc4ccc(N5CCNCC5)cc4)nc32)C1 (some centres unmarked) | < 1000 nM |
| CC(=O)c1c(C)c2cnc(Nc3ccc(N4CCNCC4)cn3)nc2n1C1CCCCCC1 | < 1000 nM |
| Cc1cn(-c2ccccc2)c2nc(Nc3ccc(N4CCNCC4)cc3)ncc12 | > 10000 nM |
| NC1CCC(n2ccc3cnc(Nc4ccc(N5CCNCC5)cc4)nc32)CC1 (centres unmarked) | < 1000 nM |

Kindly review the next compound as well.
For Cc1cn(-c2cccnc2)c2nc(Nc3ccc(N4CCNCC4)cn3)ncc12 , what is its reported IC50?
10000 nM

###

Biological target: CDK2/Cyclin-A kinase complex (Homo sapiens)
Test: CDK2 IMAP fluorescence polarization assay
Type: biochemical
Details: Table E; read-out: CDK2cyA IMAP/IC50 [umol l − 1]
pIC50: −log10 of the molar value.
observation-type: pIC50

| compound | pIC50 |
| --- | --- |
| CN(C)C(=O)c1cc2cnc(NCc3ccc(N4CCNCC4)cc3)nc2n1C1CCCC1 | < 4.82 |

Record pIC50 for all entries; do not skip any.
1. Cc1cn(-c2ccccn2)c2nc(Nc3ccc(N4CCNCC4)cn3)ncc12
2. Cc1nnc(-c2c(C)c3cnc(Nc4ccc(N5CCNCC5)cn4)nc3n2C2CCCC2)o1
3. CC(=O)N1CCN(c2ccc(Nc3ncc4ccn(C5CCCCC5=O)c4n3)cc2)CC1 (centres unmarked)
4. CN1CCN(c2ccc(Nc3ncc4ccn(C5CCCC5)c4n3)nc2)CC1
5. CCc1cn(C2CCCC2)c2nc(Nc3ccc(N4CCNCC4)cc3)ncc12

< 5.00
> 5.00
< 5.00
< 5.00
> 5.00

Batch of 2 compounds: report pIC50 for each.
1. OC1CCC(n2ccc3cnc(Nc4ccc(N5CCNCC5)cc4)nc32)C1 (centres unmarked)
2. CN(C)C(=O)c1cc2cnc(Nc3ccc(CN4CCNCC4)cc3)nc2n1C1CCCC1

1. > 6.00
2. < 5.00

###

Biological target: CDK4 (Homo sapiens, UniProt P11802)
Sequence (P11802 whole entry): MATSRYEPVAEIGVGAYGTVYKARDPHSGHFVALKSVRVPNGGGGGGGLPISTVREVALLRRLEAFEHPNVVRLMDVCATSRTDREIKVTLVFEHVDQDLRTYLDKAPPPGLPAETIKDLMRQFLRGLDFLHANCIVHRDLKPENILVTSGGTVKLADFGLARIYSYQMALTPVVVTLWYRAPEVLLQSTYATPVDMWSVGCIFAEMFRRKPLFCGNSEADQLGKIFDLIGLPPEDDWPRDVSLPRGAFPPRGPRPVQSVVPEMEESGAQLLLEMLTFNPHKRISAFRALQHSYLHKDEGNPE
Sequence (P24385 whole entry partner): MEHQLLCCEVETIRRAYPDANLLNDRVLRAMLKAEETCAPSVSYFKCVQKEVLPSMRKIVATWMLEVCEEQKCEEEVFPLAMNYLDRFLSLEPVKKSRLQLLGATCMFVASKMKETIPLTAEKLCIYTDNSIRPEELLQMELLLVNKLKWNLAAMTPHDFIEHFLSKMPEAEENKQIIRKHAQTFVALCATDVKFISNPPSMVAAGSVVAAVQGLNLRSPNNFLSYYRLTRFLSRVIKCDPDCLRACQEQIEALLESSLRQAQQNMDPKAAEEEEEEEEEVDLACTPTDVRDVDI
Experiment: CDK4 HTRF assay
Assay type: biochemical
Conditions: Table E; read-out: CDK4 HTRF/IC50 [umol l − 1]
observation-type: IC50

| compound | IC50 |
| --- | --- |
| Cc1c(-c2cnco2)n(C2CCCC2)c2nc(Nc3ccc(N4CCNCC4)cc3)ncc12 | < 1000 nM |
| Cc1cn(C2CCCC2)c2nc(Nc3ccc(F)cc3)ncc12 | 10000 nM |
| OC[C@@H]1CCC(n2ccc3cnc(Nc4ccc(N5CCNCC5)cc4)nc32)C1 (stereo partly shown) | < 1000 nM |
| CN(C)C(=O)c1cc2cnc(Nc3ccc(N4CCN(C(=O)OC(C)(C)C)CC4)cc3)nc2n1C1CCCC1 | < 1000 nM |
| Cc1cn(C2CCCC2)c2nc(Nc3ccccc3C#N)ncc12 | 10000 nM |

Give IC50 for each listed item.
1. Cc1cn(C2CCCC2)c2nc(Nc3cccc(Cl)c3)ncc12
2. Cc1cc2cnc(Nc3ccc(N4CCNCC4)cc3)nc2n1C1CCCC1
3. Cc1cc(-c2c(C)c3cnc(Nc4ccc(N5CCNCC5)cn4)nc3n2C2CCCC2)[nH]n1

["10000 nM", "< 1000 nM", "< 1000 nM"]

Items follow; give IC50 for each.
1. Cc1cn(-c2c[nH]cn2)c2nc(Nc3ccc(N4CCNCC4)cn3)ncc12
2. CCC(CC)n1c(C(=O)Nc2cccc(C(F)(F)F)c2)cc2cnc(Nc3ccc(N4CCNCC4)cc3)nc21
3. Cc1c(-c2cnco2)n(C2CCCC2)c2nc(Nc3ccc(N4CCNCC4)cn3)ncc12
4. CC(=O)c1c(C)c2cnc(Nc3ccc(N4CCNCC4)cn3)nc2n1C1CCCC1
5. OC1CCC(n2ccc3cnc(Nc4ccc(N5CCNCC5)cc4)nc32)C1 (stereo not shown)
6. CN(C)c1ccc(Nc2ncc3ccn(C4CCCC4)c3n2)cc1
7. CC(=O)N1CCN(c2ccc(Nc3ncc4ccn(C5CCCCCC5)c4n3)cc2)CC1
8. CC(C)(C)OC(=O)N1CCN(c2ccc(Nc3ncc4ccn(C5CCCC5)c4n3)cc2)CC1

1: < 1000 nM; 2: < 1000 nM; 3: < 1000 nM; 4: < 1000 nM; 5: < 1000 nM; 6: > 10000 nM; 7: < 1000 nM; 8: > 10000 nM

For each of the compounds below, state IC50.
1. Cc1cn(C2CCCC2)c2nc(Nc3ncccn3)ncc12
2. Cc1ccc(Nc2ncc3ccn(C4CCCC4)c3n2)cc1
3. Cc1c(C#N)n(C2CCCC2)c2nc(Nc3ccc(N4CCC(N(C)C)CC4)cn3)ncc12
4. Cc1cn(C2CCCC2)c2nc(Nc3ccc(CN4CCNC(=O)C4)cc3)ncc12
5. CCC(CC)n1ccc2cnc(Nc3ccc(N4CCNCC4)cc3)nc21
6. Cc1noc(-c2c(C)c3cnc(Nc4ccc(N5CCNCC5)cn4)nc3n2C2CCCC2)n1

10000 nM
> 10000 nM
< 1000 nM
< 1000 nM
< 1000 nM
< 1000 nM
